Test system: A. baumannii ATCC 19606
Measurement notes: Sensitization to rifampin: well diffusion growth inhibition on LB plates containing rifampin
Type: cell-based, Acinetobacter baumannii
Run conditions: 4 μg of compound, rifampin 0 μg/ml
# Lookup of reported Antibacterial activity in the presence of rifampin (growth inhibition area around a well) keyed by entry
Attribute measured: Antibacterial activity in the presence of rifampin (growth inhibition area around a well)

{"Substance": "DA-cy[Dab-Dab-DPhe-Leu-Dab-Dab-Thr-] [NAB 736]", "Test target": "A. baumannii ATCC 19606", "Test result": "0 square millimeters"}
{"Substance": "OA-Thr-Dab-cy[Dab-Dab-DPhe-Leu-Abu-Dab-Thr-] [NAB 716]", "Test target": "A. baumannii ATCC 19606", "Test result": "0 square millimeters"}
{"Substance": "OA-Thr-Abu-cy[Dab-Dab-DLeu-Leu-Dab-Dab-Thr-] [NAB 718]", "Test target": "A. baumannii ATCC 19606", "Test result": "0 square millimeters"}
{"Substance": "OA-Thr-DSer-cy[Dab-Dab-DPhe-Thr-Dab-Dab-Thr-] [NAB 734]", "Test target": "A. baumannii ATCC 19606", "Test result": "38 square millimeters"}
{"Substance": "DA-Thr-Abu-cy[Dab-Dab-DPhe-Leu-Dab-Dab-Thr-] [NAB 7062]", "Test target": "A. baumannii ATCC 19606", "Test result": "13 square millimeters"}
{"Substance": "OA-Thr-DSer-cy[Dab-Dab-DPhe-Leu-Dab-Dab-Thr-] [NAB 739]", "Test target": "A. baumannii ATCC 19606", "Test result": "113 square millimeters"}
{"Substance": "OA-Thr-DThr-cy[Dab-Dab-DPhe-Thr-Dab-Dab-Thr-] [NAB 737]", "Test target": "A. baumannii ATCC 19606", "Test result": "38 square millimeters"}

These measurements were taken from patent US9067974B2.
